Target: CDK12 (nuclear staining in CAL-120 cells) (Homo sapiens)
Construct: endogenous in cells; host or cells: CAL-120 human breast cancer cells (DSMZ ACC 459)
Sequence (Q9NYV4 whole entry): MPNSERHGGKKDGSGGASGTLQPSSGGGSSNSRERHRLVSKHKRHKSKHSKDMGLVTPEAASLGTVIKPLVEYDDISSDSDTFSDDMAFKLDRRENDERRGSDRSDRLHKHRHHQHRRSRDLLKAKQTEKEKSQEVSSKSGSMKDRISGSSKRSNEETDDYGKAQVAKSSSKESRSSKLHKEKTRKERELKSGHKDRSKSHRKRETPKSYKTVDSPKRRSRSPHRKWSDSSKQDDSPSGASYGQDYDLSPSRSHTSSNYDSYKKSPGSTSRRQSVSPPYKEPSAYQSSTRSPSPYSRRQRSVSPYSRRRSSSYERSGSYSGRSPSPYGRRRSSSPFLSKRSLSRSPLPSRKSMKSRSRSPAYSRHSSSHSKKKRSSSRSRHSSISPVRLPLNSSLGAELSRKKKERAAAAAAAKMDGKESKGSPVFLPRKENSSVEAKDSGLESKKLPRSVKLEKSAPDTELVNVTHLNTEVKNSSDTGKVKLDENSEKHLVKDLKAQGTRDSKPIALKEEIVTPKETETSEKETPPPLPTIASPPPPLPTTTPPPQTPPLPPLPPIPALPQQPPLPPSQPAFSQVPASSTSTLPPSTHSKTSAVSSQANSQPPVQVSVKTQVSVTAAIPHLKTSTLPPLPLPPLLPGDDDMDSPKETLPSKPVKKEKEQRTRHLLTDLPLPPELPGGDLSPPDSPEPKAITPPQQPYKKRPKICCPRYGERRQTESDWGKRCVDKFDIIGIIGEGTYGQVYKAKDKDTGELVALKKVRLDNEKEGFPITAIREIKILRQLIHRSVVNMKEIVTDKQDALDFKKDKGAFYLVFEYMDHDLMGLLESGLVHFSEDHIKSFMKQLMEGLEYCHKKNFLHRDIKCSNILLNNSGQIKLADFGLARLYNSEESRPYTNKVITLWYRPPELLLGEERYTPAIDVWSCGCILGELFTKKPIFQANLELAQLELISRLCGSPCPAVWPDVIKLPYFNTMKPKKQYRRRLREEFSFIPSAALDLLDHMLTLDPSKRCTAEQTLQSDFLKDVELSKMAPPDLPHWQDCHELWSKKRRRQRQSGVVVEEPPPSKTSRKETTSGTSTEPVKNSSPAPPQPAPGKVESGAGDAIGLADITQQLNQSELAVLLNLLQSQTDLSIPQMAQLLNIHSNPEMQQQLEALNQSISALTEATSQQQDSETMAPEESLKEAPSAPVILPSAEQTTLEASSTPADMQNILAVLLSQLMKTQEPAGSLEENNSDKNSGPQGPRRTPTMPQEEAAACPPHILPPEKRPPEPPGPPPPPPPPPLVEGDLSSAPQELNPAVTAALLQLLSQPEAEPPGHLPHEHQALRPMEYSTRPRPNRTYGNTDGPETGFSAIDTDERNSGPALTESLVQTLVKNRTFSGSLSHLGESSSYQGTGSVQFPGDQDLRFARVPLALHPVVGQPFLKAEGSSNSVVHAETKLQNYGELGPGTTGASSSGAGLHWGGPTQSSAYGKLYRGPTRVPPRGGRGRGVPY
Sequence (O75909 whole entry partner): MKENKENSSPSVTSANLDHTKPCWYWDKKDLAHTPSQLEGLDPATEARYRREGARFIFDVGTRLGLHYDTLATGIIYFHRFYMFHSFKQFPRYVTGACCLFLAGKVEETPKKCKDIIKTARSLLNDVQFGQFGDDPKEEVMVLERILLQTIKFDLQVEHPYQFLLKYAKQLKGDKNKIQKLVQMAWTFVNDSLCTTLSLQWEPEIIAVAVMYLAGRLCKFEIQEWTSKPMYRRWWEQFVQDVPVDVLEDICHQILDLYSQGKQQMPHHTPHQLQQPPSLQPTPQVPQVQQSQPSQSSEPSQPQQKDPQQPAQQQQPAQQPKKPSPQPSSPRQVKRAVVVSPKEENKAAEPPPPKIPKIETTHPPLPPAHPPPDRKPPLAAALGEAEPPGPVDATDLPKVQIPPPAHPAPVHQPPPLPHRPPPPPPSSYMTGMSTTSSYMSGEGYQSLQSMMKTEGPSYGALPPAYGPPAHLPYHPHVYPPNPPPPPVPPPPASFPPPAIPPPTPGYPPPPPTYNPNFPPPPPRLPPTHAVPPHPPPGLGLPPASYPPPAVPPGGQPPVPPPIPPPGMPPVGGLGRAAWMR
Experiment: CDK12 nuclear protein level: immunofluorescence/high content analysis (CAL-120)
Format: cell-based
Conditions: CAL-120 cells, 24 h, immunofluorescence; 50% reduction of nuclear CDK12 staining intensity; median; read-out: CDK12 degradation IF, DC50- [mol/l] (median)
Result type: DC50 (nM)

[a] COc1ccc2[nH]c(CNc3nc(N4C[C@@H](C)N[C@@H](C)C4)nc4c(Br)cnn34)nc2c1 [Example 205]
[b] CN(CCO)c1nc(NCc2nc3ccccc3[nH]2)n2ncc(Br)c2n1 [Example 237]
[c] CO[C@@H]1CCN(c2nc(NCc3nc4ccccc4[nH]3)n3ncc(Br)c3n2)C1 [Example 223]
[d] CC1CN(C)CCN1c1nc(NCc2nc3ccccc3[nH]2)n2ncc(Br)c2n1 (single isomer, unassigned; enantiomer 1) [Example 260]
QUERY: Put the entries in order of DC50, starting with the largest number. Show the ranking through the labels, in the order asked for.
RESULT: b, c, d, a
